MEASUREMENT_TARGET: T1, human IL-18BP (interleukin-18 binding protein, isoform A) (human, UniProt O95998 31-194)
T1 sequence: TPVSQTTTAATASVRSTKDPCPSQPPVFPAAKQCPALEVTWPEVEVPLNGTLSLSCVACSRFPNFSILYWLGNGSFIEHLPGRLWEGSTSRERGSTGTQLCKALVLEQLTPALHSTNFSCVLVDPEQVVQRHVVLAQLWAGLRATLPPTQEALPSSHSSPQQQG
TEST_PROTOCOL: cell-based or functional assay
PROPERTY: EC50 in PBMC Assay 1 (endogenous IL-18BP), IFNγ

{"BINDER": "SA319a (antibody, human IgG1, V domains shown, humanized; human IgG1 (suffix a), kappa) VH: QVQLQESGPGLVKPSQTLSLTCTVSGYSITQDYNAHWIRQPPGKGLEWIGYIHYSGQTNYNPSLKSRVTISRDTSKNQFSLKLSSVTAADTAVYYCARNFGSIYVNYFDYWGQGTLVTVSS VL: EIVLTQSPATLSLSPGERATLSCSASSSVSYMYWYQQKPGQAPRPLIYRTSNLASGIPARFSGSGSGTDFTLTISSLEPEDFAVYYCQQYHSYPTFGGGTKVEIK", "MEASURED": "0.2 nM"}
{"BINDER": "SA301a (antibody, human IgG1, V domains shown, humanized; human IgG1 (suffix a), kappa; also called humanized SA44a) VH: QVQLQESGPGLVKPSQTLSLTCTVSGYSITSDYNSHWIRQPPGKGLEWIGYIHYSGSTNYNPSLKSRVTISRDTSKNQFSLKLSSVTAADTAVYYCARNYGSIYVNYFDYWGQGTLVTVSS VL: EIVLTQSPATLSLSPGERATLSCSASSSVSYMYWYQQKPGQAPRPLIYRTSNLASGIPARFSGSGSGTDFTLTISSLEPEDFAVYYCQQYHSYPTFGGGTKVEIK", "MEASURED": "2 nM"}
